# test-target: T1, Goat anti-Human Kappa
# T1 construct: Positive control; also called biotinylated goat anti-human kappa light chain
# test: ELISA; positive control; further: test concentration or dose not given here
# Experimental: The binding of ACVR2A-specific monoclonal antibodies to human ACVR2A, mouse ACVR2A, biotinylated goat anti-human kappa light chain (positive control) and human Fc (negative control) were determined by ELISA.
readout-name: optical density (OD)
One number for each entry, in OD.

376_A07 (antibody, V domains shown, VH/VL only) VH: EVQLLESGGGLVQPGGSLRLSCAASGFTFSSYSMNWVRQAPGKGLEWVSGINYNGGYKSYADSVKGRFTISRDNSKNTLYLQMNSLRAEDTAVYYCARGATWHDTHLDYWGQGTLVTVSS VL: DIQMTQSPSSLSASVGDRVTITCRASQSILTYLNWYQQKPGKAPKLLIYAATSRASGVPSRFSGSGSGTDFTLTISSLQPEDFATYYCQQSYDSPLTFGGGTKVEIK :: 3.19

# optical density lookup, item 370_H06 (antibody, V domains shown, VH/VL only) VH: EVQLLESGGGLVQPGGSLRLSCAASGFTFDDYSMNWVRQAPGKGLEWVANINYNGGYTGYADSVKGRFTISRDNSKNTLYLQMNSLRAEDTAVYYCARGATWHDTHLDYWGQGTLVTVSS VL: DIQMTQSPSSLSASVGDRVTITCRASQSILTYLNWYQQKPGKAPKLLIYAATSRASGVPSRFSGSGSGTDFTLTISSLQPEDFATYYCQQSYETPLTFGGGTKVEIK
3.51
